Test system: Zika virus NS2B-NS3 protease (linked construct)
Protocol Notes: Primary screen NINDS Rhodamine qHTS for Zika virus inhibitors (AID 1347160); note: nearly all actives have a fitted effect of over 55% in size
Applied Conditions: purified NS2B-NS3 protease, Rhodamine110 substrate fluorescence; series mostly up to 57.1 µM
Records with an inconclusive call do not appear. Active and inactive are the calls of the source. Calls come from the whole dose curve; as a rule, active = well fitted inhibition curve with a large enough effect; inconclusive = small, poorly fitted or top-dose-only effect; inactive = no such curve, though single readings can be large or run the other way.

{"Molecule": "O=C(CSc1nc2c(c(=O)n1-c1ccccc1)SCC2)Nc1ccc(-c2ccccc2)cn1", "Target Under Test": "Zika virus NS2B-NS3 protease (linked construct)", "outcome": "inactive"}
{"Molecule": "CC(Oc1cc(-n2cnc3ccc(CN4CCN(C)CC4)cc32)sc1C(N)=O)c1ccccc1C(F)(F)F (stereo not given)", "Target Under Test": "Zika virus NS2B-NS3 protease (linked construct)", "outcome": "inactive"}
{"Molecule": "CC(=O)OC1C(c2ccccc2)CCC(c2ccccc2)C1OC(C)=O (stereo not given)", "Target Under Test": "Zika virus NS2B-NS3 protease (linked construct)", "outcome": "inactive"}
{"Molecule": "CC(C)(O)/C=C/C1=CC(=O)[C@@](C)(O)C[C@H]1O", "Target Under Test": "Zika virus NS2B-NS3 protease (linked construct)", "outcome": "inactive"}
{"Molecule": "O=[N+]([O-])c1cn2c(n1)OCC(OCc1ccc(OC(F)(F)F)cc1)C2 (stereo not given)", "Target Under Test": "Zika virus NS2B-NS3 protease (linked construct)", "outcome": "inactive"}

----------
Tested on: Hek293T
Protocol Notes: Primary qHTS to identify gynecologic anti-cancer compounds using libraries of approved drugs and bioactive compounds (AID 1345084); note: nearly all actives have a fitted effect of over 55% in size
Applied Conditions: Gynecologic cancer cell panel viability, ATPlite luminescence, 48 h, control line for the selectivity index; series mostly up to 57.5 µM
Results filed as inconclusive are left out. The source made the active and inactive calls. Calls follow the shape of the dose curve; as a rule, active = well fitted cell-killing curve with a large enough effect; inconclusive = small, poorly fitted or top-dose-only effect, or effect the other way; inactive = flat fitted curve, though single readings scatter.
Outcome codes: active, inactive

{"Molecule": "COc1ccc(C2(O)c3ccccc3NC(=O)C2O)cc1 (stereo unspecified)", "Category Label": "inactive"}
{"Molecule": "O=C1NC(Cc2c[nH]c3ccccc23)C(=O)NC1Cc1c[nH]c2ccccc12 (stereo unspecified)", "Category Label": "inactive"}
{"Molecule": "C[C@@]12C[C@]3(O)O[C@H](O1)[C@]1(COC(=O)c4ccccc4)[C@H]3C[C@@]12O[C@@H]1O[C@H](CO)[C@@H](O)[C@H](O)[C@H]1O", "Category Label": "inactive"}
{"Molecule": "COC(=O)C1=C2Nc3ccccc3C23CCN2CCCC(C(C)O)(C1)C23 (stereo unspecified)", "Category Label": "inactive"}
{"Molecule": "C=C(C(=O)O)C1CC(O)C2(C)CCCC(=C)C2C1 (stereo unspecified)", "Category Label": "inactive"}
{"Molecule": "CC(=O)O[C@@H]1C[C@H](O)[C@@]23CO[C@H](O)[C@]1(C)C2C[C@@H](O)[C@]1(C)C3C(=O)[C@H](OC(C)=O)[C@@]2(C)[C@H](c3ccoc3)C[C@H]3O[C@]321 (stereo partly specified)", "Category Label": "active"}
{"Molecule": "C=C(C(=O)O)C1CCC2(C)CCCC(C)(O)C2C1 (stereo unspecified)", "Category Label": "inactive"}
{"Molecule": "C/C=C1\\[C@H](O[C@@H]2O[C@H](CO)[C@@H](O)[C@H](O)[C@H]2O)OC=C(C(=O)OC)[C@H]1CC(=O)O", "Category Label": "inactive"}
{"Molecule": "C=C[C@H]1C(O[C@@H]2O[C@H](CO)[C@@H](O)[C@H](O)[C@H]2O)OC=C2C(=O)N3CCc4c([nH]c5ccccc45)[C@H]3C[C@H]21 (stereo partly specified)", "Category Label": "inactive"}
{"Molecule": "Cc1nc(C)c(-c2ccc(C3CCC(CC(=O)O)CC3)cc2)nc1C(N)=O (stereo unspecified)", "Category Label": "inactive"}
{"Molecule": "COc1ccc(CNC(=O)c2sc3nc(C)cc(C)c3c2N)cc1", "Category Label": "inactive"}
{"Molecule": "C=C1C(=O)O[C@H]2[C@H]1CC/C(C)=C/CC[C@@]1(C)O[C@@H]21", "Category Label": "inactive"}
{"Molecule": "CN1CCN(C2CCC(n3cc(-c4ccc(Oc5ccccc5)cc4)c4c(N)ncnc43)CC2)CC1 (stereo unspecified)", "Category Label": "inactive"}
{"Molecule": "COC(=O)N[C@@H](C)CNc1nccc(-c2cn(C(C)C)nc2-c2cc(Cl)cc(NS(C)(=O)=O)c2F)n1", "Category Label": "inactive"}
{"Molecule": "CC(C)(F)C[C@@H](N[C@@H](c1ccc(-c2ccc(S(C)(=O)=O)cc2)cc1)C(F)(F)F)C(=O)NC1(C#N)CC1", "Category Label": "inactive"}
{"Molecule": "C[C@H]1Oc2cc(cnc2N)-c2c(nn(C)c2C#N)CN(C)C(=O)c2ccc(F)cc21", "Category Label": "inactive"}
{"Molecule": "CC1=CC(=O)[C@H]2C(C)(C)CCC[C@]2(C)[C@@]1(O)CO", "Category Label": "inactive"}
{"Molecule": "C[C@@H](O)[C@H](NC(=O)c1ccc(C#Cc2ccc(CN3CCOCC3)cc2)cc1)C(=O)NO", "Category Label": "inactive"}
{"Molecule": "OC/C=C/c1ccc(O[C@@H]2O[C@H](CO)[C@@H](O)[C@H](O)[C@H]2O)cc1", "Category Label": "inactive"}
{"Molecule": "Cc1cccc(C)c1-n1c(=O)c2cnc(Nc3ccc(N4CCN(C)CC4)cc3)nc2n2c3ccccc3nc12", "Category Label": "active"}
{"Molecule": "CC(C)CCC[C@@H](C)[C@H]1CC[C@H]2[C@@H]3CC(=O)[C@H]4C[C@@H](O)CC[C@]4(C)[C@H]3CC[C@]12C", "Category Label": "inactive"}
{"Molecule": "COc1cc(C2c3cc4c(c(O)c3CC(CO)C2C(=O)O)OCO4)cc(OC)c1O (stereo unspecified)", "Category Label": "active"}
{"Molecule": "CC(C)c1nc(-c2ccc(NC(=O)Nc3cccc(C(F)(F)F)c3)c3ccccc23)c2c(N)nccn12", "Category Label": "active"}
{"Molecule": "COC(=O)CCc1cc2ccoc2c(OC)c1O[C@@H]1O[C@H](CO)[C@@H](O)[C@H](O)[C@H]1O", "Category Label": "inactive"}
{"Molecule": "COc1c(Nc2ncc(Cl)c(N[C@H]3[C@@H](C(N)=O)[C@@H]4C=C[C@H]3C4)n2)ccc2c1CC[C@@H](N1CCOCC1)CC2", "Category Label": "inactive"}
{"Molecule": "COc1cccc(C(=O)N2CCN(C(=O)COc3cccc(C)c3)CC2)c1OC", "Category Label": "inactive"}
{"Molecule": "C=C[C@]1(C)C=C2CCC3C(C)(CCC[C@@]3(C)C(=O)O)C2CC1 (stereo partly specified)", "Category Label": "inactive"}
{"Molecule": "CC(C)c1nnc(-c2ccc(-c3ccccc3)nc2)n1-c1cccc2nonc12", "Category Label": "inactive"}
{"Molecule": "Cc1ccc(S(=O)(=O)c2ccc([N+](=O)[O-])o2)cc1", "Category Label": "active"}
{"Molecule": "CC(C)(O)CC(CO)NC(=O)CC(O)CC(=O)Cc1ccccc1 (stereo unspecified)", "Category Label": "inactive"}
{"Molecule": "Nc1ncnc2c1nc(N)n2[C@@H]1O[C@H](CO)[C@@H](O)[C@H]1O", "Category Label": "active"}
{"Molecule": "O=C(O)Cc1cn(C2OCC(O)C(O)C2O[C@@H]2O[C@H](CO)[C@@H](O)[C@H](O)[C@H]2O)c2ccccc12 (stereo partly specified)", "Category Label": "inactive"}
{"Molecule": "CC1(C(=O)O)CCCC2(C)C3CCC4CC3(CCC12)CC4=O (stereo unspecified)", "Category Label": "inactive"}
{"Molecule": "CCOC(=O)C(CCc1ccccc1)NC(C)C(=O)N1C(=O)N(C)CC1C(=O)O (stereo unspecified)", "Category Label": "inactive"}
{"Molecule": "O=C(NOCC(O)CO)c1ccc(F)c(F)c1Nc1ccc(I)cc1F (stereo unspecified)", "Category Label": "inactive"}
{"Molecule": "CC1=C(C(=O)OCc2ccccc2)C(c2ccc(-c3ccccc3)cc2)NC(=O)N1CCCCCC(=O)O (stereo unspecified)", "Category Label": "inactive"}
